Details: human gut metagenome, 24 h, 2 µM; note: call rule not given here;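 note: incubated anaerobically, with remaining drug quantified by LC–MS at nine sampling points across the 24 h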
Measured property: Bacterial Biotransformation

Here is how some compounds turned out for Bacterial Biotransformation.
Compound	Bacterial Biotransformation
CCCc1nn(C)c2c(=O)[nH]c(-c3cc(S(=O)(=O)N4CCN(C)CC4)ccc3OCC)nc12.O=C(O)CC(O)(CC(=O)O)C(=O)O [SILDENAFIL CITRATE]	Compound NOT metabolized
CCN(CC)CCNC(C(=O)OCCC(C)C)c1ccccc1.Cl.Cl (stereo not drawn)	Compound metabolized
CC(O)(CS(=O)(=O)c1ccc(F)cc1)C(=O)Nc1ccc(C#N)c(C(F)(F)F)c1 (stereo not drawn) [BICALUTAMIDE]	Compound NOT metabolized
COc1ccc(CCN(C)CCCC(C#N)(c2ccc(OC)c(OC)c2)C(C)C)cc1OC (stereo not drawn)	Compound NOT metabolized
Cc1ccc(S(=O)(=O)NC(=O)NN2CCCCCC2)cc1 [TOLAZAMIDE]	Compound metabolized

Now, please, on to the next compound.
The value of Bacterial Biotransformation measured for the compound Nc1c2c(nc3ccccc13)CCCC2 turned out to be Compound NOT metabolized
